Sourced from patent US20240101572A1

compounds and their reported inhibition at 10 µM
- study_target: full-length human PLD1 (Homo sapiens (Human), UniProt Q13393)
- Sequence (Q13393 other isoform, or with tags, fused parts or gaps): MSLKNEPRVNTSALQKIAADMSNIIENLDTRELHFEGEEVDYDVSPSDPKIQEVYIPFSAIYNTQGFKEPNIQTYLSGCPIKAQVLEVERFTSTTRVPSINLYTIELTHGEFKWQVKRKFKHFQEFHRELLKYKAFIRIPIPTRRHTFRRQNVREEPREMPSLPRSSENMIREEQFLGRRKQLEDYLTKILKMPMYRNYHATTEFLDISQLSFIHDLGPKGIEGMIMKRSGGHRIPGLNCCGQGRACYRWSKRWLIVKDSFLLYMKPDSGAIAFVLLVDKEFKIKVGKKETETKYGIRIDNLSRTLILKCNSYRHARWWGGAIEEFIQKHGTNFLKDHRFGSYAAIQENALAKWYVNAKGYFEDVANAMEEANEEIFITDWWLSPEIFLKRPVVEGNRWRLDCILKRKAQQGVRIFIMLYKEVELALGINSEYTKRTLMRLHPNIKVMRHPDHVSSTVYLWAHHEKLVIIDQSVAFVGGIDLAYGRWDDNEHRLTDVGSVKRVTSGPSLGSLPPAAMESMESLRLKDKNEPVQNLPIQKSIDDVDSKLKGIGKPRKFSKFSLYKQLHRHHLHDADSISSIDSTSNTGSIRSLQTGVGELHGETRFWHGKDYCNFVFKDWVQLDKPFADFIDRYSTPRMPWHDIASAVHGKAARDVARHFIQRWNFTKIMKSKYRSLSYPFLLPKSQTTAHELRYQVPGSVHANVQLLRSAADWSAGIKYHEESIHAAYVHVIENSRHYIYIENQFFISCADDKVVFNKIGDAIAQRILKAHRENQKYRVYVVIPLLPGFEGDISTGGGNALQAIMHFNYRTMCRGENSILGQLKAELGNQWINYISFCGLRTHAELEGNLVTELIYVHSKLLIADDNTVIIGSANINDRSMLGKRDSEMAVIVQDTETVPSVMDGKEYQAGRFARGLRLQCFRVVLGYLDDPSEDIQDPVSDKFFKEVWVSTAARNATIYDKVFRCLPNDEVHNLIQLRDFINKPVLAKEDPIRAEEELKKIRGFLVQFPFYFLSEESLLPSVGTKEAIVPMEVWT
- test_description: Evaluation of human PLD1 enzyme inhibitory activity (Amplex Red / choline oxidase fluorescence)
- Assay type: biochemical
- study_conditions: read-out: human PLD1 % inhibition at 10 μM
A number alone suffices; assume %.

Below are worked cases with known answers.
compound	value_kind	observed_result
CNC(=O)C(=O)N[C@H](C)C[C@H]1CC[C@@]2(CC1)OC(=O)NN=C2c1cc(C#N)ccc1Br [Example 2-150]	inhibition at 10 µM	25
C[C@@H](C[C@]1(C#N)CC[C@@]2(CC1)OC(=O)NN=C2c1cc(OCC(F)F)ncc1Br)NC(=O)C(=O)NC1CC1 [Example 2-101]	inhibition at 10 µM	13
CNC(=O)C(=O)N[C@@H](C)C[C@]1(C#N)CC[C@@]2(CC1)OC(=O)NN=C2c1cc(OCC(F)F)ncc1Br [Example 2-099]	inhibition at 10 µM	21

Consider the compound C[C@@H](C[C@H]1CC[C@]2(CC1)OC(=O)NN=C2c1cc(C#N)ccc1Br)NC(=O)C(=O)O [Example 2-171] and give its measured inhibition at 10 µM.
12

---

- study_target: full-length human PLD1 (Homo sapiens (Human), UniProt Q13393)
- test_description: Evaluation of human PLD1 enzyme inhibitory activity (Amplex Red / choline oxidase fluorescence)
- Type: biochemical
- study_conditions: full-length human PLD1 enzyme; read-out: PLD1 IC50
- Procedure: A method for measuring human PLD1 enzyme inhibitory activity using an enzyme in which a FLAG-tag is added to the N-terminus of full-length human PLD1 (1-1036 amino acids) is shown below. DNA fragment in which a FLAG-tag sequence is added to the 5′-end of full-length human PLD1 was amplified by PCR method, using commercially available human PLD1 gene (Promega KK) as a template. […]
Mark YES only for IC50 values smaller than 0.03 µM; exact matches and larger values are NO.

compound	category_label
COc1cc(C)c(C2=NNC(=O)O[C@]23CC[C@@H](C[C@H](C)NC(=O)N2CCn4ncnc4C2)CC3)cn1	NO
CNC(=O)C(=O)N[C@@H](C)CN1CCC2(CC1)OC(=O)NN=C2c1cc(C#N)ccc1Cl	NO
CNC(=O)C(=O)N[C@@H](C)CN1CCC2(CC1)OC(=O)NN=C2c1cc(C#N)ccc1Br	NO
C[C@@H](C[C@H]1CC[C@]2(CC1)OC(=O)NN=C2c1ccc(F)cc1Br)NC(=O)C1CC1c1ccccc1 (single isomer, unassigned) [Example 38]	NO
CNC(=O)C(=O)N[C@@H](C)C[C@H]1CC[C@]2(CC1)OC(=O)NN=C2c1cnc(N2CC(C(F)F)C2)cc1C	YES

Lab note: IC50 threshold 0.03 µM. Does this compound come in strictly under it? CNC(=O)C(=O)N[C@@H](C)C[C@H]1CC[C@]2(CC1)OC(=O)NN=C2c1cnc(N2CC3CCC(C2)O3)cc1Cl
YES

Lab note: IC50 threshold 0.03 µM. Does this compound come in strictly under it? Cc1cc(C(=O)N[C@@H](C)CN2C[C@H]3CC[C@@H](C2)[C@@]32OC(=O)NN=C2c2ccc(F)cc2Cl)[nH]n1
YES

---

compounds and their reported IC50
- study_target: full-length human PLD1 (Homo sapiens (Human), UniProt Q13393)
- test_description: Evaluation of human PLD1 enzyme inhibitory activity (Amplex Red / choline oxidase fluorescence)
- Type: biochemical
- study_conditions: full-length human PLD1 enzyme; read-out: PLD1 IC50
- Description: A method for measuring human PLD1 enzyme inhibitory activity using an enzyme in which a FLAG-tag is added to the N-terminus of full-length human PLD1 (1-1036 amino acids) is shown below. DNA fragment in which a FLAG-tag sequence is added to the 5′-end of full-length human PLD1 was amplified by PCR method, using commercially available human PLD1 gene (Promega KK) as a template. […]
A number alone suffices; assume nM.

given_smiles	observed_result
Cc1cc(C(=O)N[C@@H](C)CN2CCC3(CC2)OC(=O)NN=C3c2ccc(C#N)cc2Cl)[nH]n1	34
CNC(=O)C(=O)N[C@@H](C)C[C@H]1CC[C@]2(CC1)OC(=O)NN=C2c1nccn1CC1CC1	421
Cc1ncccc1C1=NNC(=O)O[C@]12CC[C@@H](C[C@H](C)NC(=O)c1cc(Cl)no1)CC2	170

// switching to the query compound
Consider the compound [2H]C([2H])([2H])NC(=O)C(=O)N[C@@H](C)CN1CCC2(CC1)OC(=O)NN=C2c1cc(C#N)c(F)cc1Br and give its measured IC50.
68

---

- study_target: full-length human PLD1 (Homo sapiens (Human))
- test_description: Evaluation of human PLD1 enzyme inhibitory activity (Amplex Red / choline oxidase fluorescence)
- Type: biochemical
- study_conditions: full-length human PLD1 enzyme; read-out: PLD1 IC50
value_kind: IC50 (nM)
A number alone suffices; assume nM.

given_smiles	study_target	value_kind	observed_result
Cc1cc(C(=O)N[C@@H](C)C[C@H]2CC[C@]3(CC2)OC(=O)NN=C3c2ccc(C(=O)O)cc2C)[nH]n1	full-length human PLD1 (Homo sapiens (Human))	IC50	328
CNC(=O)C(=O)N[C@@H](C)C[C@H]1CC[C@]2(CC1)OC(=O)NN=C2c1ccccc1S(C)(=O)=O	full-length human PLD1 (Homo sapiens (Human))	IC50	1630
Cc1cc(C(=O)N[C@@H](C)C[C@H]2CC[C@]3(CC2)OC(=O)NN=C3c2ccc(C(=O)NC3CC3)cc2C)[nH]n1	full-length human PLD1 (Homo sapiens (Human))	IC50	123

Consider the molecule CNC(=O)C(=O)N[C@@H](C)CN1CCC2(CC1)OC(=O)NN=C2c1ccc(F)cc1Br and give its measured IC50.
25

Consider the molecule C[C@@H](CN1CCC2(CC1)OC(=O)NN=C2c1ccc(F)cc1Cl)NC(=O)c1cc(C(F)(F)F)on1 and give its measured IC50.
241

Consider the molecule CNC(=O)C(=O)N[C@@H](C)[C@@H](C)N1CCC2(CC1)OC(=O)NN=C2c1ccc(F)cc1Br and give its measured IC50.
150

---

- study_target: full-length human PLD2 (Homo sapiens (Human), UniProt O14939)
- Sequence (O14939 whole entry): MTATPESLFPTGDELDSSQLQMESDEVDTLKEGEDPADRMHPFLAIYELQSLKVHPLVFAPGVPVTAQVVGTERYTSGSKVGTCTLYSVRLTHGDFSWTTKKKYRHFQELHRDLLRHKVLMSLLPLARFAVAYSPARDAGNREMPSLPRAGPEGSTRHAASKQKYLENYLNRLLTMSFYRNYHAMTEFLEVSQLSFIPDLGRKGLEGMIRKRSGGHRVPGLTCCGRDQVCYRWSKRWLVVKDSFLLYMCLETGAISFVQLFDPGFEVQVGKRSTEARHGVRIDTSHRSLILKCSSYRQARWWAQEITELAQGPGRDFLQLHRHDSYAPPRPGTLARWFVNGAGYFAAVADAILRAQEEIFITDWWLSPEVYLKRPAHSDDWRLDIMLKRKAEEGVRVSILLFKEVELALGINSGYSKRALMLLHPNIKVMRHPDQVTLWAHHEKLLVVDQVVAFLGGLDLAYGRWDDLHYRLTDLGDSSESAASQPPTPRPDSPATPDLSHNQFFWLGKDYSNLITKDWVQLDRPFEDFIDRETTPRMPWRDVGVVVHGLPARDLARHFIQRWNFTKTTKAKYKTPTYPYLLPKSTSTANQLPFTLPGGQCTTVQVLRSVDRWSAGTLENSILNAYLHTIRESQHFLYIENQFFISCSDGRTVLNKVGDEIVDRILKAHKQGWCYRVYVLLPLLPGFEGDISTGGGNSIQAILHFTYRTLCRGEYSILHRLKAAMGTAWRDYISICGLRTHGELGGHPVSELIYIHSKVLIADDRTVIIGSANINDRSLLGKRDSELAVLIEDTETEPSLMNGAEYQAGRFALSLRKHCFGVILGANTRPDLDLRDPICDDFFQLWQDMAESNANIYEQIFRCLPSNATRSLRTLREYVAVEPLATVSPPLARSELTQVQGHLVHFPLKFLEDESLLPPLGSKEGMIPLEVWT
- test_description: Evaluation of human PLD2 enzyme inhibitory activity (Amplex Red / choline oxidase fluorescence)
- Format: biochemical
- study_conditions: full-length human PLD2 enzyme; read-out: PLD2 IC50
Mark yes only for IC50 values smaller than 40 nM; exact matches and larger values are no.

compound	category_label
CNC(=O)C(=O)N[C@@H](C)CN1CCC2(CO1)OC(=O)NN=C2c1cc(C#N)ccc1Br (some centres unmarked)	no
Cc1cc(C(=O)N[C@@H](C)C[C@H]2CC[C@]3(CC2)OC(=O)NN=C3c2cnc(N3CC4CCC(C3)O4)cc2Cl)[nH]n1	yes
CNC(=O)C(=O)N[C@@H](C)C[C@]1(O)CC[C@]2(CC1)OC(=O)NN=C2c1ccc(F)cc1Br	no
CNC(=O)C(=O)N[C@@H](C)C[C@]1(C#N)CC[C@@]2(CC1)OC(=O)NN=C2c1cc(OC(F)(F)F)ccc1Br	yes
CNC(=O)C(=O)N[C@@H](C)C[C@H]1CC[C@]2(CC1)OC(=O)NN=C2c1cnc(N2CCC2)cc1C	yes

Lab note: IC50 threshold 40 nM. Does this compound come in strictly under it? CNC(=O)C(=O)N[C@@H](C)C[C@H]1CC[C@]2(CC1)OC(=O)NN=C2c1ccccc1S(C)(=O)=O
no

Lab note: IC50 threshold 40 nM. Does this compound come in strictly under it? CNC(=O)C(=O)N[C@@H](C)C[C@]1(C#N)CC[C@@]2(CC1)OC(=O)NN=C2c1ccc(OC(F)F)cc1Br
yes

Lab note: IC50 threshold 40 nM. Does this compound come in strictly under it? C[C@@H](CN1CCC2(CC1)OC(=O)NN=C2c1ccc(S(C)(=O)=O)cc1Cl)NC(=O)c1cc2cc(F)ccc2o1
yes

Lab note: IC50 threshold 40 nM. Does this compound come in strictly under it? Cc1cc(C(=O)N[C@@H](C)CN2CCC3(CC2)OC(=O)NN=C3c2ccc(F)cc2Br)[nH]n1
yes

Lab note: IC50 threshold 40 nM. Does this compound come in strictly under it? CNC(=O)C(=O)N[C@@H](C)C[C@H]1CC[C@]2(CC1)OC(=O)NN=C2c1ccc(C(C)=O)cc1C
yes

---

- study_target: full-length human PLD2 (Homo sapiens (Human))
- test_description: Evaluation of human PLD2 enzyme inhibitory activity (Amplex Red / choline oxidase fluorescence)
- Type: biochemical
- study_conditions: full-length human PLD2 enzyme; read-out: PLD2 IC50
value_kind: IC50 (nM)
A number alone suffices; assume nM.

Consider the compound CNC(=O)C(=O)N[C@@H](C)C[C@H]1CC[C@]2(CC1)OC(=O)NN=C2c1cn(CC(F)F)nc1I and give its measured IC50.
66

Consider the compound C[C@@H](C[C@H]1CC[C@]2(CC1)OC(=O)NN=C2c1ccc(S(C)(=O)=O)cc1)NC(=O)c1cc2cc(F)ccc2[nH]1 and give its measured IC50.
10

Consider the compound C[C@@H](CN1CCC2(CC1)OC(=O)NN=C2c1cc(C#N)ccc1Br)NC(=O)c1ccccc1C(F)(F)F and give its measured IC50.
8410
